Tested on: MDA-MB-435 melanoma
METHOD_DESCRIPTION: NCI-60 one-dose screen, 48 h
ASSAY_SETUP: 10 µM unless noted
This is part of a sample that, as a whole, favours compounds with a hit. Of some 83,000 tested, about 20% had one in any assay. Active and inactive are the calls of the source. How the source made its calls: active means growth percent below 10; inactive means the rest.
Would you mind answering with one of these outcomes? Yes for active, No for inactive

C=C(C)[C@@H]1CC[C@]2(C(=O)NC(COC(=O)C(Cl)Cl)(COC(=O)C(Cl)Cl)COC(=O)C(Cl)Cl)CC[C@]3(C)[C@H](CC[C@@H]4[C@@]5(C)CC[C@H](OC(C)=O)C(C)(C)[C@@H]5CC[C@]43C)[C@@H]12    No
O=C(NCCN1CCCCC1)n1cc(-c2ccncc2)c(-c2ccc(Cl)c(O)c2)n1    No
O=C(CCl)Nc1cc(O)c2c(c1)C(=O)c1cccc(O)c1C2=O    No
COCc1nc(NS(=O)(=O)c2ccc(N)cc2)nc(C)c1Br    No
CCCCCCCC/C=C/CCCCCCCC1=NC(C)(C)CN1c1ccccc1    No
CCC(=O)NC1=C(Cl)C(=O)C(NC(=O)CC)=C(Cl)C1=O    No

Q: Answer briefly: the call reported for CN1C(=O)C(C2=NNC(c3ccccc3C(=O)O)C2)C(=O)N(C)C1=O (stereo not given) in this assay.
A: No

Q: Then `N/C(=N\O)c1ncc(-c2ccc(C(F)(F)F)cc2)c(NC2CCCCCC2)n1` ?
A: Yes

Q: Would you kindly repeat that for `COc1ccc2c(c1)C1=NN(C(=O)CO)[C@H](c3ccc(OC(F)(F)F)cc3)[C@@H]1CC2` ?
A: No

Q: Record: `O=[N+]([O-])c1ccc(Sc2nc(Cl)nc(NC3CCCC3)n2)cc1`
A: Yes

Q: Same read-out for `CS(=O)(=O)c1ccc(C(=O)N/N=C/c2ccccc2Cl)cc1` ?
A: No

Q: Same again, this time with `Nc1c(C(=O)Nc2cccc(Cl)c2)sc2nc3c(cc12)C(=O)CCC3`
A: Yes

Q: And for `CCOC(=O)c1ccc2c(c1)[n+](=O)c(C(=O)c1ccc3ccccc3c1)c(C(F)(F)F)n2[O-]` ?
A: Yes

Q: And for `O=C(Nc1ccc(Br)cc1)Nc1cccc(Br)c1` ?
A: No

Q: Do the same for `CCn1c(Cc2ccccc2Nc2c(Cl)cccc2Cl)nnc1SCC(=O)Nc1ccccc1C(F)(F)F` please
A: No

Q: Query `COc1cc(/C=N/NC(=O)Cn2c(-c3ccc(C)o3)nc3ccccc32)ccc1OCc1ccccc1` next
A: No

Q: Please answer likewise for `CCOC(=O)Cn1c(-c2nonc2NC(=O)c2ccccc2F)nc2ccccc21`
A: No
